These entries and their values trace back to patent US9086390B2.

assayProtocol: Accelerated stability study of dabigatran etexilate mesylate (impurity contents by HPLC method 1)
Format: physicochemical
recordedConditions: content of the named impurity in dabigatran etexilate mesylate of Example 6 after storage in a double polyethylene bag at 40° C. and 75% relative humidity for 3 months; HPLC method 1; area % with respect to dabigatran etexilate
measuredMetric: Compound/Impurity contents (area %) Example 7

CCCCCCOC(=O)/N=C(/N)c1ccc(N)cc1	0.18 area %
CCCCCCOC(=O)NC(=O)c1ccc(NCc2nc3cc(C(=O)N(CCC(=O)O)c4ccccn4)ccc3n2C)cc1	3.8 area %
CCOC(=O)c1ccc2c(c1)nc(CNc1ccc(C(=N)N)cc1)n2C	0.38 area %
CCCCCCOC(=O)NC(=O)c1ccc(NCc2nc3cc(C(=O)N(CCC(=O)OC)c4ccccn4)ccc3n2C)cc1	0.25 area %
CCCCCCOC(=O)NC(=O)c1ccc(NCc2nc3cc(C(=O)N(CCC(=O)OCC)c4ccccn4)ccc3n2C)cc1	7.62 area %
CCCCCCOC(=O)/N=C(/N)c1ccc(NCc2nc3cc(C(=O)N(CCC(=O)OC)c4ccccn4)ccc3n2C)cc1	0.32 area %
